measurement target: anti-CD28 Fab (SEQ ID NOs: 202, 203)
Sequence (VH, as listed by the source, chain 1 of 2): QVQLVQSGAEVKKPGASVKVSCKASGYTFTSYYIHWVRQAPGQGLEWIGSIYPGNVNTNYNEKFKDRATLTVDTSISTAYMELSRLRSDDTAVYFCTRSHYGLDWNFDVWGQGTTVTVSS
Sequence (VL, as listed by the source, chain 2 of 2): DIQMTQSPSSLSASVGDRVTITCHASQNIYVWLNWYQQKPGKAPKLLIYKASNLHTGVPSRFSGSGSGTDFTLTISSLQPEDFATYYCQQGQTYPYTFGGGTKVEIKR
protocol details: phage ELISA, Fab on plate;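 note: ELISA of crude clonal phage supernatants on the plate, wells preloaded with CD28 antigen or only blocking buffer, captured phage read out via HRP-linked anti-M13 antibody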
Reported Anti-CD28 Fab signal values for the following binders.
Please respond with just the number, no unit label.

Prompt: Could you share which Anti-CD28 Fab signal value was measured for TCSAGFSYKWPWCW [Phage-1117] ?
Completion: 1.45

Prompt: Which Anti-CD28 Fab signal value is on record for GCAAGASYPWPACL [Phage-1135] ?
Completion: 1.41
